Tested on: SEM cells
Experiment: cell viability relative to DMSO control; higher = less cytotoxic
Details: RPMI 5 mM glucose + 10% FBS; 48 h; 1.71 µM
Kindly apply the following: y if cell viability is less than 90%, n in every other case.

See these solved cases before continuing.
Structure As Smiles	Assigned Category
Cc1nc2ccc(CN(C)c3ccc(C(=O)N[C@@H](CCC(=O)O)C(=O)O)s3)cc2c(=O)[nH]1	y
CN(CC(=O)N(Cc1ccc(C2CCCCC2)cc1)c1ccc(C(=O)O)c(O)c1)[S+](=O)([O-])c1c(F)c(F)c(F)c(F)c1F	n
COC(=O)[C@H](Cc1ccccc1)NC(=O)[C@@H](N)CC(=O)O	n
Cc1ccc(C(=O)Nc2ccc([S+](=O)([O-])O)c3cc([S+](=O)([O-])O)cc([S+](=O)([O-])O)c23)cc1NC(=O)c1cccc(NC(=O)Nc2cccc(C(=O)Nc3cc(C(=O)Nc4ccc([S+](=O)([O-])O)c5cc([S+](=O)([O-])O)cc([S+](=O)([O-])O)c45)ccc3C)c2)c1	n
CN(C[C@@H]1COCCO1)[S+]([O-])(=O)NC2=CC3=C(C=C2)\C=C/C4=C(C=C(C=N4)C5=C[N](C)N=C5)C3=O	y

Query block: In the record for `COc1cccc(N(C)C(=S)Oc2ccc3c(c2)CCCC3)n1` , is cell viability less than 90%?
Result block: n

Query block: A record lists `Cc1cccc(-c2[nH]c(C(C)(C)C)nc2-c2ccc3nccnc3c2)n1` . Is its cell viability below 90%?
Result block: y
